Value source: patent US20240059693A1

UniProt:P08546: recorded IC50 for assorted compounds
Sequence (P08546 whole entry): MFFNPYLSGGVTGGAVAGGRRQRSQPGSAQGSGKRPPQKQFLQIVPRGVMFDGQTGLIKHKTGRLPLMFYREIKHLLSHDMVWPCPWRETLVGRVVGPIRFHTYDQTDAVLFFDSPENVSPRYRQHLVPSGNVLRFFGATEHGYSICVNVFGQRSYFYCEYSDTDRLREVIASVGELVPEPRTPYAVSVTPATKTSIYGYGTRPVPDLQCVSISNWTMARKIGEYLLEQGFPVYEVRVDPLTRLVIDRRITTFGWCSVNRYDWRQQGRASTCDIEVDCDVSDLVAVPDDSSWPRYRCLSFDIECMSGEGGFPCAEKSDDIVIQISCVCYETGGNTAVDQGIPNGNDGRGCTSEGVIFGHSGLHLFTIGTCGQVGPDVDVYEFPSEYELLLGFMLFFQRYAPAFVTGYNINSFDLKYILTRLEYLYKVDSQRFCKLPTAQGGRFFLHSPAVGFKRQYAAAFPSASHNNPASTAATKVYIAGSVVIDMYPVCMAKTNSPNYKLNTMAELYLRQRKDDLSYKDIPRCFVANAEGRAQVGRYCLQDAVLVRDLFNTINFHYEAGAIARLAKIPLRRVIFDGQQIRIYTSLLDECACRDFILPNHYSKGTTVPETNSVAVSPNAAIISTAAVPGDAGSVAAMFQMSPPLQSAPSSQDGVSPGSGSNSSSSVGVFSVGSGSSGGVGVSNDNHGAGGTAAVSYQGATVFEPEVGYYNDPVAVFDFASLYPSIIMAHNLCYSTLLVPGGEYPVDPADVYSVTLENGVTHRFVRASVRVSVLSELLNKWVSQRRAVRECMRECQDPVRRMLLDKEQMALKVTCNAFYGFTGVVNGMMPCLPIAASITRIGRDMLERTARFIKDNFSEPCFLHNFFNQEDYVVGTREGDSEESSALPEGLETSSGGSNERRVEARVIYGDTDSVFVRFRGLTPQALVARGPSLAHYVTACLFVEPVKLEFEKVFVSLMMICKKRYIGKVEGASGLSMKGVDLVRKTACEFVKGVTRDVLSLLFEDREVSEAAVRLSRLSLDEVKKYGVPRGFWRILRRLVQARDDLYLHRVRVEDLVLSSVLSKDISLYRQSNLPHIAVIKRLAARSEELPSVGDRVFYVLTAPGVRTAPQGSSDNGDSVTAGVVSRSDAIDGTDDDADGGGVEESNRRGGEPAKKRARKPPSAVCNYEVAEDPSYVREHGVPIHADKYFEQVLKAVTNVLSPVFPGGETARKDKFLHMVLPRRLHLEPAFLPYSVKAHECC
parameter: IC50 (nM)

[
  {
    "compound": "O=C1CC[C@@H](CN2Cc3c(C(=O)NCc4ccc(Cl)cc4)nn(C(F)F)c3C2)N1 [Compound 46]",
    "IC50 (nM)": 69.7
  },
  {
    "compound": "CN(CCn1nc(C(=O)NCc2ccc(Cl)cc2)c2c1CN(Cc1c(F)cncc1F)C2)C(=O)C1CCC1",
    "IC50 (nM)": 99.3
  },
  {
    "compound": "CC(C)CN1CC(n2nc(C(=O)NCc3ccc(Cl)cc3)c3c2CC(C[C@H]2CCC(=O)N2)C3)C1 (stereo partly drawn)",
    "IC50 (nM)": 89.3
  }
]
